Below is a list of entries, each paired with its recorded IL-17A-induced IL-6 production in HT-1080 cells, Emax value.
test-target: human IL-17A (human, UniProt Q16552 24-155, biotinylated with Sulfo-NHS-LC-Biotin in the AlphaScreen assays only)
Sequence (Q16552 other isoform, or with tags, fused parts or gaps): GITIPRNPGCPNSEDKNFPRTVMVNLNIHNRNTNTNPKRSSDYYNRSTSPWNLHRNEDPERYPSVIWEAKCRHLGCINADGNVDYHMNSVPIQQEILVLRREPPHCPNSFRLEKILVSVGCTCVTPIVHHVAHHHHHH
assay-method-text: cell-based or functional assay
Quick note: give the figure in %, leave out the unit.

As a guide, the following entries are already answered.
>>> number("09G10 (VHH, Class 2 Nanobody (anti-IL-17A and IL-17A/F); not shown: c-myc, His6 tag) VHH: EVQLVESGGGLVQAGGSLRLSCAASDSVFTAKAVGWYRQPPGLQREWVAIITSGGKTNYADSSVKGRFTVSVDKVKNTVTLQMNSLKPEDTAVYYCYAQWMGRDYWGQGTQVTVSS")
99
>>> number("02A10 (VHH, Class 2 Nanobody (anti-IL-17A and IL-17A/F); not shown: c-myc, His6 tag) VHH: EVQLVESGGGLVQPGGSLRLSCAASGFALGYYAIGWFRQAPGKEREGVSCDSSSDGRTYYGDSVKGRFTISTDSAKNTVYLQMNSLKPEDTAVYYCATCTDFEYDYWGQGTQVTVSS")
104
>>> number("04A02 (VHH, Class 2 Nanobody (anti-IL-17A and IL-17A/F); not shown: c-myc, His6 tag) VHH: EVQLVESGGGLVQPGGSLRLSCAASRNINIINYMAWYRQAPGNQRELVAAMTSDATTEYADSVKGRFTISRDIPENTVYLQMNSLKPEDTAVYYCNAKGIWDYLGRRDFGDYWGQGTQVTVSS")
102

Please report the recorded IL-17A-induced IL-6 production in HT-1080 cells, Emax for 13B05 (VHH, Class 4 Nanobody (cross-reactive: anti-IL-17A, IL-17F and IL-17A/F); not shown: c-myc, His6 tag) VHH: EVQLVESGGRLVQAGGSLRLSCAASGRTFTSYPMGWFRQAPGKEREFVAAISMSGDDTAYTDFVRGRFTISRDDARNTVYLHMTSLKPEDTAVYYCAARTSYDGTYDYIDDYSYWGQGTQVTVSS .
104

Please report the recorded IL-17A-induced IL-6 production in HT-1080 cells, Emax for 13E02 (VHH, Class 4 Nanobody (cross-reactive: anti-IL-17A, IL-17F and IL-17A/F); also called IL17MS13E02; not shown: c-myc, His6 tag) VHH: EVQLVESGGGLVQAGGSLRLSCAASGRTYDAMGWLRQAPGKEREFVAAISGSGDDTYYADSVKGRFTISKDNAGITMYLQMNSLKPEDTAVYYCATRRGLYYVWDSNDYENWGQGTQVTVSS .
102

Please report the recorded IL-17A-induced IL-6 production in HT-1080 cells, Emax for 03C07 (VHH, Class 2 Nanobody (anti-IL-17A and IL-17A/F); not shown: c-myc, His6 tag) VHH: EVQLVESGGGLVQAGGSLRLSCAASGFTFDDYAIGWFRQAPGKEREAVSCFSSSDGSIYYADSVKGRFTISSDNAKNTVYLQMNSLKPEDTAVYYCAGGGGSYYYTQLNYCYDMDYWGKGTQVTVSS .
101

Please report the recorded IL-17A-induced IL-6 production in HT-1080 cells, Emax for 17C01 (VHH, Class 4 Nanobody (cross-reactive: anti-IL-17A, IL-17F and IL-17A/F); not shown: c-myc, His6 tag) VHH: EVQLVESGGRLVQAGGSLRLPCAASGRTFTSYPMGWFRQAPGKEREFVAAISMSGDDAAYADFVRGRFTISRDDARNTVYLHMTSLKPEDTAVYYCAARTSYDGTYDYIDDYSYWGQGTQVTVSS .
105

Please report the recorded IL-17A-induced IL-6 production in HT-1080 cells, Emax for 04F09 (VHH, Class 2 Nanobody (anti-IL-17A and IL-17A/F); not shown: c-myc, His6 tag) VHH: EVQLVESGGGLVQPGGSLRLSCAASGRTFSTHAMGWFRQAPGKERDFVAAIRWSDGSSFYADSVKGRFTISRDNAKNAVYLQSNSLKSEDTAVYVCYADVEGPTALHKYWGRGTQVTVSS .
111
